Test system: MDA-MB-468
Assay overview: Cytotoxicity against human MDA-MB-468 cells harboring wild type BRCA1 and BRCA2 mutant reduction in assessed as cell viability
Format: functional, cell-based
Listed compounds paired with reported pIC50
Kindly note that pIC50 refers to -log10 of the concentration in mol/L and answer with the value alone.

Previously resolved entries follow.
                                   compound  numeric_readout
0  O=C(CCCCCCC(=O)Nc1ccccc1)NO [VORINOSTAT]             5.64
1  CN(C)CCCNC(=O)c1ccc(/C=C2\CCn3c2nc2cc(N4CCN(CCCCCCCC(=O)NO)CC4)c(F)cc2c3=O)cc1.Cl             5.48

QUERY: Please look at this compound and report its pIC50: "CCN(CC)CCCNC(=O)c1ccc(/C=C2\CCn3c2nc2cc(NCCCN4CCCC4)c(F)cc2c3=O)cc1"
RESULT: 4.33
